# experiment description: soluble on expression in E. coli; label from the status in PepcDB or PDB records
experimental readout: soluble on expression in E. coli

| residue codes | result |
| --- | --- |
| MSLVINAPFKVIASKVTAEVLKSVNSKLGSYSTNYATSSEARATNVAVATRSIDGKVVMPGETFSFNEVVGERTRARGYKEAGVIVNQKLESGFGGGVCQVSSTLYNALLRSNIKMTERVHHTFPSSYVPTGLDATVDWGNIDLKFKNTFKYPIYIQGYTGGREVGFNIYSNSELAREGHHHHHH | not soluble |
| MGSDKIHHHHHHMKIVFMGTPEFAAAHLKEIVESGNKVAGVFSQPDRPKGRGQKVEPTPVKTVATNYGIPVFQPEKINSDEGFEKLSELSPDIIVVVAFGKLLKSGVINLPTIGCFNVHASLLPKYRGAAPIQRAIENGETKTGITIFKIDEGMDTGAIALKRELEIHPSDSFGSLYLKLAELGKKTLVHFLERVKEGRLELAPQDGIPSFAPKIQPEDLVISDLSDAAKVVNKIRAYDPQPGARVSVEGRISKVFGASLKCRNEGKGIVGEIVKIDDRGMIVSCGAENVIISLVQFPGKKPMRPKDALSGRLISEGIILGG | not soluble |

* * *

# experiment description: soluble on expression in E. coli; label from the status in PepcDB or PDB records

| residue codes | soluble on expression in E. coli |
| --- | --- |
| MGSDKIHHHHHHMNIAIFGAGSTGCYLAGQLCISELQVSLICRPAIKQKIIANNGITLTDYNGFKQTIMPQALITDINQESSIYGKFDVVFVTLKCHQVSSIANQLMAITHDNSSIIFMQNGLGSFDSIKDSLDHYSLLQGITPFNVLQLPNAVFHKGTEGVFTLQANPHTIAIQSALVNHGFGCDIEADFTPMIYGKLLLNLNNALNAVTDLPIKQQLSHYKNRRILAKAMKEWLAVCEAADIQLHQYTKVKPSWLPTILLLPNVLFTVLAKQMLDIDPKARSSMWEDIQAKRKTEVDYINGAVVSIGKKYGIKTPVNQAIVEQIKQLEQRH | not soluble |
| MGSDKIHHHHHHMSNTNDLLNRINAKYSTMSKGHKLLATYITDNYDKAVFLTAAKMGETVGISESTVVRFATSLGYKGYPDFQKALEELVRNKLNSVQRMEVTYGRISQSQILETVLQSDRDKIKTTLEKIDADAFDLAVDTILQSRKIYIVGIRSCAPLASFLAFYMNLMFEDVCLLTTNSSSELFEQMVRIGKDDVIIGISFPRYSMRTLKALEFANNRSAKVITITDSIHSPMNLYSSCNLIADSDMASIVDSLVAPLSVINALIVALCMKKQNIVAKTLTELEDIWNEYQVYENDEIDYIDDSIKVHYAKLGDSQDE | not soluble |
| MHTPVTIIGAGLGGLTLARVLHVHAIPVTVYEADSSPSARAQGGLLDIHDYNGQLAVEAAGLTDEFRAIVLEGRQALRVLDPDGTVRLDRADDGTGGRPEVQRGDLRQILLDSLPAGTVRWGHKVSRARPLGDGRHEVTFADGGTVVTRLLVGADGAWSRVRPLLSSATPEYVGKSVVETYLFDAGTRHPVAAKTVGGGMLIAPAPGKEIFAHREKDDTLHAYVGLSRPLDWFAGIDFTDGAAATARIAREFDGWATELTALITDTDVAPALRALHALPAGHRWERVPGVTLLGDAAHLAAPNGEGANLAMLDGAELGTALAAHPGDVEAALAEYERAMFPRSAEAAGDDMIGMDSPDNTAQGLIDLITENGGLEHHHHHH | soluble |
| MGSDKIHHHHHHMPRTILKDEHWTRLKPILLELNIYDKGNLRNTVEGVLYRMRVGCPWRDLPEHFGKPNTVYKAYQRWFRSNKLIALFALLIKDSDCEWVFIDGTHIKAHQHSSIGHENMQGISKSVAGRATKIHLAVDAHGNPITFILSDGTTHDVKVAPDLIDKDLSDTDILCADKGYDSDALRTHIKQAGCFNNIPRRRNTKSTNNHMDWHLYKTRHLVENAFAKLKHYRAVATRFDKLKQSYENTVALACAYLWLKL | not soluble |
| RQRSLSTSGESLYHVLGLDKNATSDDIKKSYRKLALKYHPDKNPDNPEAADKFKEINNAHAILTDATKRNIYDKYGSLGLYVAEQFGEENVNTYFV | soluble |

* * *

# experiment description: soluble on expression in E. coli; label from the status in PepcDB or PDB records

| residue codes | soluble on expression in E. coli |
| --- | --- |
| MEKYLPILRNSPFFKGLSDNEILSILHCVNATVISKERASYIFRAGDSTEVMGLVVSGCVLVMQEDLWGHRNILSKCHAGDFFGEPYAASLGAVLNISVAADEDCEIIFLNVQRLLVTCQTACEHHQKLIRNLVSVLANKILILNDKITHVGKRTTRDKLLSYLSAESIRRSSLSFDIPFDRQQLADYLCIDRAAMSTEISKLQKEGFIKTNRNHFELIACNETDLQADK | not soluble |
| MKAHHILKVTKQYNPTEDLEFNPDLDGELVAGADNLPSVEIQVEKIADRQRQITARVQIPQPVEQVWQVLTNYEALADFIPNLAKSSLLEHPNGGIRLEQVGSQRLLNFKFCARVVLDLEEYFPKEINFQMVEGDFKGFSGNWCLQPYALGNVIGTDLCYTIQVWPKLTMPITIIERRLSQDLRSNLLAIYQRVECLANQSLLEHHHHHH | soluble |
| MILKLKYYREAMNLTQEELARHAKVSVAMVQSMENGRRKGSTDTILKLSDALNVTVDDLLRGNNMTISHKKETSK | not soluble |
| MRGSHHHHHHTDPALRADYRKIIKEIGRGKNHARDLDRDTARGLYAHMLNGEVPDLELGGVLIALRIKGEGEAEMLGFYEAMQNHTIKLTPPAGKPMPIVIPSYNGARKQANLTPLLAILLHKLGFPVVVHGVSEDPTRVLTETIFELMGITPTLHGGQAQAKLDEHQPVFMPVGAFCPPLEKQLAMRWRMGVRNSAHTLAKLATPFAEGEALRLSSVSHPEYIGRVAKFFSDIGGRALLMHGTEGEVYANPQRCPQINLIDREGMRVLYEKQDTAGSELLPQAKDPETTAQWIERCLAGSEPIPESLKIQMACCLVATGEAATISDGLARVNQAFGLCGR | soluble |
| MQGNTMYKFEVFKDKAGEFRFRFRASNGEIMFSSEGYKAKASVLNAIESIKKNSPGAETVDQTTATV | soluble |

* * *

# experiment description: soluble on expression in E. coli; label from the status in PepcDB or PDB records

| residue codes | soluble on expression in E. coli |
| --- | --- |
| KGKSFIWIKRQLDPKVAEEVKALGLENFVFEKELKRHYPMGNLFAHVIGFTDIDGKGQEGLELSLEDSLHGEDGAEVVLRDRQGNIVDSLDSPRNKAPKNGKDIILSLD | not soluble |
| MNVANNNCGQMLSDSSESSEPPRAQAGAVFGKKDKGKKADTKKKNTATEGSKRVKKEKKKDDGEAAKGDPTNKTNMTPAPPQTHPIVEQWVLRALDVGVDKLREEFRGLAKYTRPDMTQVMFNANQSPDIAITKNRYQDVPCQDQSAVKLDQPSPCNYIHANYVGCPMIPEKRFICAQGPLDQTIDEFWWMVIQNKVEQIVMLCKTVEMGKLKCAQYWPAAQGEKLTLKSGCVVENVSGSKPMERDPEIQITMLNLTYSGGQTMSVRHLQWTEWPDRGVPPCKLTSLELLSAIRGSKVPIVVHCSAGIGRTGTIVAIEYILEKIAENKPCPPMPELVKALRDQRAFSIQNDVQYLFIHRVMLNYFLEKYKEKYAALLTAENVAKYDKFIKDYNAAVGQ | not soluble |
| MSIDRTSPLKPVSTVQTRETSDTPVQKTRQEKTSAATSASVTLSDAQAKLMQPGVSDINMERVEALKTAIRNGELKMDTGKIADSLIREAQSYLQSK | not soluble |

* * *

# experiment description: soluble on expression in E. coli; label from the status in PepcDB or PDB records

| residue codes | soluble on expression in E. coli |
| --- | --- |
| IRRNETTEADKQIPHYEREIIYQVLYDMKKEIADLKGMMNRLAHHEQPSWPVGSDVWGNDDKRTADPKWGVSTHKAPIANAAEPVEPIQEASEYTEDPVSLEEVEKKMISLALERHGGRRKQTAEELKISERTLYRKIKEYGLE | not soluble |
| AIANSRAADQLELDGLPGTPPDFYRERQRSRVERYQSPAGAPLQCSVQVQTTQEHPLWTSHVWSGARALADTLCWQPELIAGKTVCELGAGAGLVSIVAFLAGADQVVATDYPDPEILNSLESNIREHTANSCSSETVKRASPKVVPYRWGDSPDSLQRCTGLQRFQVVLLADLLSFHQAHDALLRSVKMLLALPANDPTAVALVTFTHHRPHLAERDLAFFRLVNADGALIAEPWLSPLQMDPMFPDDPGDVCIRGQVHRWRLRWRSAASASANIPAHARNE | soluble |
| MSEQKIEVVGKLGSTYGIRGWLRLYSSTEKAESIFDYQPWFLKIKGQWQLIELESWRYHSNDLIVKLKGTEDREAAQLLTNAEIGVDLSVFPKLGEEDYYWHDLINCQVVNLENYTMGVVTELMETGSNDVLVVRANSKDAFGKQERLIPFLYKQVVKRVDLSTKTITVDWDAGFLEHHHHHH | soluble |
| MGSDKIHHHHHHMIRNLTPSDFAQVISLGEQVHGANYLDLDTLKHYYQLGIKDGINAHFVAEQAGEIIGFRLTFTANQWTLDEWCSPALWGVEIDKVCYFKSNTLAEKARGQGIGGDLLAQSIAAVKAQGAKAGVSHLWKQSPHNAAVRYFTKAGGRLIKEHPGRWNQANDGSDYLCVLCGNDCHCTACEMLINF | not soluble |

Source: the DeepSol protein solubility set
